From: the Human Domainome abundance scans (Beltran et al. 2025)

Could you please report measured abundance fitness for the items listed next?
B1: Retinoic acid receptor RXR-alpha, residues 132 to 208; numbered along this chain, P19793 (parent)
chain: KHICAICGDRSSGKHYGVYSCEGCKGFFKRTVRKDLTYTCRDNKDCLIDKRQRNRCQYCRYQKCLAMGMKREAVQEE

variants of: B1; assay: abundance fitness (aPCA) (normalised: wild type 0, dead -1); higher = more abundant; growth selection in yeast, the domain comes from the species named; details: Homo sapiens
Give only the figure.

Problem: Need abundance fitness, item `R10W`
Solution: -0.044

Problem: Field entry: `S12V`
Solution: 0.018

Problem: Field entry: `I48K`
Solution: 0.094

Problem: Field entry: `G23M`
Solution: -0.305

Problem: Field entry: `C7Y`
Solution: -0.917

Problem: Field entry: `Y38P`
Solution: 0.04

Problem: Field entry: `K29R`
Solution: -0.003

Problem: Field entry: `D9F`
Solution: -0.321

Problem: Field entry: `K50T`
Solution: -0.099

Problem: Field entry: `T39M`
Solution: 0.046

Problem: Field entry: `K29E`
Solution: 0.028

Problem: Field entry: `D9A`
Solution: -0.091

Problem: Field entry: `I6D`
Solution: -0.729

Problem: Field entry: `T37G`
Solution: 0.047

Problem: Field entry: `V18H`
Solution: -0.356

Problem: Field entry: `G13T`
Solution: -0.005

Problem: Field entry: `D49F`
Solution: -0.109

Problem: Field entry: `G23T`
Solution: -0.256

Problem: Field entry: `G13W`
Solution: -0.659

Problem: Field entry: `V18L`
Solution: -0.141

Problem: Field entry: `C40L`
Solution: -0.454

Problem: Field entry: `G23H`
Solution: -0.089

Problem: Field entry: `K29C`
Solution: -0.223

Problem: Field entry: `V32W`
Solution: -0.211

Problem: Field entry: `C46V`
Solution: -0.193

Problem: Field entry: `G17P`
Solution: -0.277

Problem: Field entry: `L36K`
Solution: -0.018

Problem: Field entry: `R10M`
Solution: -0.099

Problem: Field entry: `F28R`
Solution: -0.917

Problem: Field entry: `C46F`
Solution: -0.291

Problem: Field entry: `S11A`
Solution: -0.054

Problem: Field entry: `C46Q`
Solution: -0.288

Problem: Field entry: `A5F`
Solution: 0.171

Problem: Field entry: `C46G`
Solution: -0.186

Problem: Field entry: `L36T`
Solution: -0.028

Problem: Field entry: `T37Y`
Solution: -0.082

Problem: Field entry: `K14H`
Solution: -0.414

Problem: Field entry: `T39N`
Solution: 0.03

Problem: Field entry: `L36P`
Solution: -0.067

Problem: Field entry: `S20V`
Solution: 0.035

Problem: Field entry: `R30A`
Solution: -0.162

Problem: Field entry: `K50N`
Solution: 0.124

Problem: Field entry: `T31C`
Solution: -0.005

Problem: Field entry: `C24E`
Solution: -0.559

Problem: Field entry: `L47M`
Solution: -0.048

Problem: Field entry: `G23P`
Solution: -0.126

Problem: Field entry: `R41T`
Solution: 0.035

Problem: Field entry: `G26P`
Solution: -0.503

Problem: Field entry: `T39V`
Solution: 0.05

Problem: Field entry: `A5S`
Solution: 0.02

Problem: Field entry: `R10G`
Solution: -0.072

Problem: Field entry: `I48W`
Solution: 0.007

Problem: Field entry: `R33K`
Solution: 0.05

Problem: Field entry: `Y19A`
Solution: -0.036

Problem: Field entry: `G13K`
Solution: 0.084

Problem: Field entry: `K44C`
Solution: -0.025

Problem: Field entry: `F28E`
Solution: -0.289

Problem: Field entry: `L36V`
Solution: 0.009

Problem: Field entry: `G13E`
Solution: 0.059

Problem: Field entry: `G26Y`
Solution: -0.081

Problem: Field entry: `R41H`
Solution: 0.06

Problem: Field entry: `Y38L`
Solution: 0.012

Problem: Field entry: `L47F`
Solution: 0.011

Problem: Field entry: `V32N`
Solution: 0.015

Problem: Field entry: `I3C`
Solution: 0.022

Problem: Field entry: `H15R`
Solution: -0.039

Problem: Field entry: `K14S`
Solution: -0.04

Problem: Field entry: `G26W`
Solution: -0.052

Problem: Field entry: `F28T`
Solution: -0.894

Problem: Field entry: `V18A`
Solution: -0.133

Problem: Field entry: `C40I`
Solution: -0.697

Problem: Field entry: `I3S`
Solution: -0.127

Problem: Field entry: `V18P`
Solution: -0.18

Problem: Field entry: `C21N`
Solution: -0.803

Problem: Field entry: `G17W`
Solution: -0.163

Problem: Field entry: `R33Y`
Solution: -0.158

Problem: Field entry: `C24H`
Solution: -0.971

Problem: Field entry: `S11H`
Solution: -0.019

Problem: Field entry: `D9N`
Solution: -0.05

Problem: Field entry: `I3T`
Solution: -0.008

Problem: Field entry: `C4R`
Solution: -1.02

Problem: Field entry: `K14Y`
Solution: -0.218

Problem: Field entry: `C40N`
Solution: -0.732

Problem: Field entry: `N43M`
Solution: 0.02

Problem: Field entry: `T37S`
Solution: -0.025

Problem: Field entry: `R33N`
Solution: -0.017

Problem: Field entry: `C7Q`
Solution: -0.988

Problem: Field entry: `G23E`
Solution: -0.039

Problem: Field entry: `K44F`
Solution: -0.024

Problem: Field entry: `F28D`
Solution: -0.57

Problem: Field entry: `G17A`
Solution: -0.106
